experiment: Pharmacokinetic analysis of DK419 in mouse plasma after oral dose; format: in vivo, NOD/SCID mice; conditions: DK419 1 mg/kg oral, mice; compartmental; read-out: Cmax (second line)
Measured attribute: Cmax (nM)
State the answer as a number, implicitly in nM.

Prompt line: Dear colleague, please send me the reported Cmax for O=C(Nc1ccc(C(F)(F)F)cc1)c1cc(Cl)cc2nc(C(F)(F)F)[nH]c12 when you can.
Response line: 1790

---

The reader will find reported IC50 values listed item by item below.
tested on: HT-29; assay: Inhibition of cell proliferation by MTS assay, HT-29; assay type: cell-based; conditions: Homo sapiens; HT-29, MTS assay at 72 hr
Please respond with the number in nM and leave the unit unwritten.

Prompt line: Item O=C(Nc1ccc([N+](=O)[O-])cc1Cl)c1cc(Cl)ccc1O [Niclosamide, reference compound] : provide IC50
Response line: 100

Prompt line: Dear colleague, please send me the reported IC50 for O=C(Nc1ccc(C(F)(F)F)cc1)c1cc(Cl)cc2nc(C(F)(F)F)[nH]c12 when you can.
Response line: 110
